Biological target: T1, Soluble heterodimeric CD3 protein (hCD3-epsilon/hCD3-delta) with a human Fc tag (hFcΔAdp/hFc) or a mouse Fc … (human, UniProt P07766 23-126; P04234 22-105)
T1 construct: also called hCD3ε/δ; not shown: Fc tag: human (hFcΔAdp/hFc); which tag was used in Ta
T1 sequence (P07766 23-126 limits assumed, stated change not applied, chain 1 of 2): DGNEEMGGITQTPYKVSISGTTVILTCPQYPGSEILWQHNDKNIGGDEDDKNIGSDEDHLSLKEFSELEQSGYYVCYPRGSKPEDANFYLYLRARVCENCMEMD
T1 sequence (P04234 22-105 limits assumed, stated change not applied, chain 2 of 2): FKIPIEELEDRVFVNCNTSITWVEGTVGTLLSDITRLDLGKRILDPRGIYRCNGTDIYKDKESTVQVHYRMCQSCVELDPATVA
Test: SPR Biacore, 25 C, antibody-capture format
Measurement Name: Kd (nM)

Binder	Quantitative Readout
H2M2691N (antibody, V domains shown, Hybridoma antibody, human variable regions, mouse IgG2 Fc) VH: EVQLVESGGGLVQPGRSLRLSCAASGFTFDDYTMHWVRQAPGKGLEWVSGISWNSGSIGYADSVKGRFTISRDNAKKSLYLQMNSLRAEDTALYYCAKDNSGYGHYYYGMDVWGQGTTVTVAS VL: EIVMTQSPATLSVSPGERATLSCRASQSVSSNLAWYQQKPGQAPRLLIYGASTRATGIPARFSGSGSGTEFTLTISSLQSEDFAVYYCQHYINWPLTFGGGTKVEIK	20.1
H2M2778N (antibody, V domains shown, Hybridoma antibody, human variable regions, mouse IgG2 Fc) VH: EVQLVESGGGLVQPGRSLRLSCAASGFTFDDYSMHWVRQAPGKGLEWVSGISWNSRSIDYADSVKGRFTISRDNAKNSLYLQMNSLRAEDTALYYCVKDNSGYGRYYYYGMDVWGQGTTVSVSS VL: KIVMTQSPATLSVSPGERATLSCRASQSVSGNLAWYQQKPGQAPRLLIYGASTRATSIPARFSGSGSGTEFTLTISSLQSEDFAVYFCQHYYNWPLTFGGGTKVEIR	8.9
H1M2692N (antibody, V domains shown, Hybridoma antibody, human variable regions, mouse IgG1 Fc) VH: EVQLVESGGGLVQPGGSLRLSCAASGFSFDDYTMHWVRQPPGKGLEWVSGISWNSGSIGYADSVKGRFTISRDNAKNSLYLQMNSLRAGDTALYYCAKDNSGYGYYYYYGMDVWGQGTTVTVSS VL: EIVMTQSPATLSVSPGERATLSCRASQSVSSNLAWYQQKPGQAPRLLIYGASTRATGIPARFSGSGSGTEFTLTISSLQSEDFAVYYCQQYYNWPLTFGGGTKVEIK	53.9
